- subject-of-test: ABL1 (Homo sapiens, UniProt P00519)
- Construct: purchased Carna Biosciences
- method-description: Luminescence-based ABL kinase assay (300 μM ATP), ADP-Glo
- Format: biochemical
- Source text: Compounds were serially diluted in DMSO. […] Luminescence signal positively correlates with kinase activity.
Measured IC50, listed per entry.
Please reply with the bare figure in nM and do not write the unit itself.

Examples with their reported IC50 follow.
                                   compound  value_unit  result_number
0  CCOc1ncccc1-c1cc2cc(NC(=O)[C@H]3C[C@H]3F)ncc2n1C          nM           35.4
1  COc1ccccc1-c1cc2cc(NC(=O)[C@H]3C[C@H]3CN3CCOCC3)ncc2n1C (relative stereo)          nM            324
2  COc1ncc(F)cc1-c1cc2cc(NC(=O)[C@@H]3C[C@@H]3F)ncc2n1C          nM           46.7
3  Cc1cc2[nH]ncc2cc1-c1cc2cc(NC(=O)C3CC3)ncc2n1C          nM            184

Asked: Tell me its IC50 given Cc1c(-c2cc3cc(NC(=O)C4CC4)ncc3n2C)ccc2c1CCN2 as the entry.
Given back: 567

Asked: Tell me its IC50 given COc1nc(C)ncc1-c1cc2cc(NC(=O)[C@@H]3C[C@@H]3F)ncc2n1C as the entry.
Given back: 316

Asked: Tell me its IC50 given COc1ccccc1-c1cc2cnc(NC(=O)[C@@H]3C[C@@H]3F)cc2n1C as the entry.
Given back: 88.6

Asked: Tell me its IC50 given CCc1ncccc1-c1cc2cc(NC(=O)[C@@H]3C[C@@H]3F)ncc2n1C as the entry.
Given back: 1320

----------
- subject-of-test: ABL1 (T315I) (Homo sapiens, UniProt P00519, T315I)
- method-description: Luminescence-based ABL kinase assay (300 μM ATP), ADP-Glo
- Assay type: biochemical
# MET = IC50 below 40 nM (exclusive); NOT MET = IC50 at/above 40 nM

Examples with answers:
compound	class-assignment
Cn1c(-c2ccncc2OC2CC2)cc2cc(NC(=O)[C@@H]3C[C@@H]3F)ncc21	NOT MET
COc1ccnc(OC)c1-c1cc2cc(NC(=O)[C@@H]3C[C@H]3CN3CCNCC3)ncc2n1C (single isomer, unassigned)	NOT MET
COc1ccccc1-c1c(C#N)c2cc(NC(=O)C3CC3)ncc2n1C	NOT MET
COc1ncccc1-c1c(C)c2cc(NC(=O)[C@@H]3C[C@@H]3F)ncc2n1C	NOT MET

Asked: Is 40 nM strictly greater than the compound's reported IC50? compound: COc1ncnc(OC)c1-c1cc2cc(NC(=O)[C@@H]3C[C@@H]3F)ncc2[nH]1
Given back: NOT MET

Asked: Is 40 nM strictly greater than the compound's reported IC50? compound: COc1cc(C)nc(OC)c1-c1cc2cc(NC(=O)[C@@H]3C[C@@H]3F)ncc2n1C
Given back: MET

Asked: Is 40 nM strictly greater than the compound's reported IC50? compound: COc1nc(C)c(F)c(OC)c1-c1cc2cc(NC(=O)[C@@H]3C[C@@H]3F)ncc2n1C
Given back: NOT MET

----------
- Test system: HL60 cells
- method-description: HL60 cell proliferation assay (CellTiter-Glo)
- Format: cell-based
- stated-conditions: Homo sapiens, HL-60, HL60 cell viability, 72 hours, read-out: Cell Line (IC50, nM) HL60
# yes (1) = IC50 below 4000 nM (exclusive); no (0) = IC50 at/above 4000 nM

>>> print(df.to_string())
                                 compound  subject_of_test  class_assignment
0  COc1ncccc1-c1cc2cc(NC(=O)C3CC3)ncc2n1C       HL60 cells           yes (1)

Asked: Is 4000 nM strictly greater than the compound's reported IC50? compound: Cc1c(O)cccc1-c1cc2cc(NC(=O)[C@@H]3C[C@@H]3F)ncc2n1C
Given back: yes (1)

Asked: Is 4000 nM strictly greater than the compound's reported IC50? compound: Cc1cc(O)ccc1-c1cc2cc(NC(=O)C3CC3)ncc2n1C
Given back: yes (1)

Asked: Is 4000 nM strictly greater than the compound's reported IC50? compound: COc1ncc(F)c(OC)c1-c1cc2cc(NC(=O)[C@@H]3C[C@H]3CN(C)C)ncc2n1C (single isomer, unassigned)
Given back: no (0)

Asked: Is 4000 nM strictly greater than the compound's reported IC50? compound: COc1ncnc(OC)c1-c1cc2cc(NC(=O)[C@@H]3C[C@@H]3F)ncc2[nH]1
Given back: no (0)

Asked: Is 4000 nM strictly greater than the compound's reported IC50? compound: COc1ncnc(OC)c1-c1cc2cc(NC(=O)[C@H]3C[C@H]3F)ncc2n1C
Given back: no (0)

Asked: Is 4000 nM strictly greater than the compound's reported IC50? compound: Cn1c(-c2cnccc2OC2CC2)cc2cc(NC(=O)[C@@H]3C[C@@H]3F)ncc21
Given back: no (0)

Asked: Is 4000 nM strictly greater than the compound's reported IC50? compound: CCOc1ncccc1-c1cc2cc(NC(=O)[C@@H]3C[C@@H]3F)ncc2n1C
Given back: yes (1)

Every entry's value here was drawn from patent US12240846B2.
